Target: UniProtKB Q12908
Sequence (Q12908 1-348): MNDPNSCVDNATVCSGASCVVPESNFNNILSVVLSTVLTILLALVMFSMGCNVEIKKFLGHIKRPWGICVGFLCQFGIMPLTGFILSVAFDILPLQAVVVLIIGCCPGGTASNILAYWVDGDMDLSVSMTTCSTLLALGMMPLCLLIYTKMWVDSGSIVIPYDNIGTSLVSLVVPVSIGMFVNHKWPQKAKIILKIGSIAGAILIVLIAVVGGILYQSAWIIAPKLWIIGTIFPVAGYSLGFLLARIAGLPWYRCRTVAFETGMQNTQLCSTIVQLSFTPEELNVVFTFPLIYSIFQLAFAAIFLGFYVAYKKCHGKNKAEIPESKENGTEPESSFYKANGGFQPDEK
Conditions: 50 µM
Counter-ions that a name gives are not always drawn.
Param threshold (30%) applies to inhibition; output T when value >= threshold, F when value < threshold.

Reference set, count: 4
COc1ccc([C@@H]2Sc3ccccc3N(CCN(C)C)C(=O)[C@@H]2OC(C)=O)cc1 [Diltiazem hydrochloride, diltiazem hydrochloride]: F
CC(C)c1nc(N(C)S(C)(=O)=O)nc(-c2ccc(F)cc2)c1/C=C/[C@@H](O)C[C@@H](O)CC(=O)O: F
CN1CCCCC1CCN1c2ccccc2Sc2ccc([S+](C)[O-])cc21 (stereo not shown) [Mesoridazine besylate]: T
O=C(O)C[C@H](O)C[C@H](O)/C=C/c1c(C2CC2)nc2ccccc2c1-c1ccc(F)cc1: T

Moving on to another compound below.
query: Determine whether measured inhibition meets or exceeds 30% for CCCCOc1cc(C(=O)NCCN(CC)CC)c2ccccc2n1 [Dibucaine hydrochloride, dibucaine hydrochloride]
result: F

###

Here, each record is paired with measured potency estimated from few doses data.
Biological target: human apical sodium-dependent transporter (SLC10A2, ASBT) (Homo sapiens)
Experiment: ASBT cis-inhibition of taurocholate uptake in ASBT-MDCK cells
Settings: read-out: Ki estimated from one concentration
// return numeric value only (unit: µM, not printed)

Cc1c(OCC(F)(F)F)ccnc1C[S+]([O-])c1nc2ccccc2[nH]1 (stereo not drawn): 116

query: potency estimated from few doses lookup needed for CC(C)c1nc(N(C)S(C)(=O)=O)nc(-c2ccc(F)cc2)c1/C=C/[C@@H](O)C[C@@H](O)CC(=O)O , thanks.
result: 123

query: Any idea what its potency estimated from few doses is? The compound is COc1ccc2c(c1)c(CC(=O)O)c(C)n2C(=O)c1ccc(Cl)cc1
result: 86.9

###

Biological target: human apical sodium-dependent transporter (SLC10A2, ASBT) (Homo sapiens)
Sequence (Q12908 1-348): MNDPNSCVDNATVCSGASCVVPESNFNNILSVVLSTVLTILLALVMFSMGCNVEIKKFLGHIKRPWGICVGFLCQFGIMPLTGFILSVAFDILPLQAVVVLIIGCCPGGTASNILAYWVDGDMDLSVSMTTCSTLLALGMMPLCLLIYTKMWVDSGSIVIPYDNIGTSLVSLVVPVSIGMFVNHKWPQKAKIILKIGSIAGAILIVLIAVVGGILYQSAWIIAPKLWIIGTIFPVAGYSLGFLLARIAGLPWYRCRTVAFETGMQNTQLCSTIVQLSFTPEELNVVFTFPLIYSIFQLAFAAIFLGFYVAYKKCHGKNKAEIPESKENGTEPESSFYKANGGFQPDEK
Experiment: ASBT cis-inhibition of taurocholate uptake in ASBT-MDCK cells
Details: read-out: Ki estimated from one concentration
So basically: potency estimated from few doses at 60 µM or higher? That is label 1. Lower than 60 µM? That is label 0.

N=C(N)c1ccc(OCCCCCOc2ccc(C(=N)N)cc2)cc1 [Pentamidine Isethionate, pentamidine isethionate]: label 1

Please look at the following compound next.
query: Is reported potency estimated from few doses greater than or equal to 60 µM here: CN1CCN(CC/C=C2/c3ccccc3Sc3ccc(S(=O)(=O)N(C)C)cc32)CC1 [Thiothixene, thiothixene]
result: label 1
